Tested target: T1, human CD70 on the surface of cells (human, UniProt P32970 1-193)
T1 sequence (looked up): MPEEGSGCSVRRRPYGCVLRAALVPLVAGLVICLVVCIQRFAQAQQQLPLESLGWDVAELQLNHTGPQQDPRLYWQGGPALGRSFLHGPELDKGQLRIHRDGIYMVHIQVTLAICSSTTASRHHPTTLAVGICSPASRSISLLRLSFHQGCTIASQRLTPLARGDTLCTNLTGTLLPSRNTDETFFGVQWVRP
Method description: cell-based or functional assay
Below, each entry is listed alongside its reported Raji co-culture assay IC50 relative to 27B3.
Measurement kind: Raji co-culture assay IC50 relative to 27B3

[
  {
    "Binder": "53H1 mAb (human IgG1, HEK293) (antibody, V domains shown) VH: EVQLVESGGGLVQPGGSLRLSCAASGFTFSVYYMNWVRQAPGKGLEWVSDINNEGGTTYYADSVKGRFTISRDNSKNSLYLQMNSLRAEDTAVYYCARDAGYSNHVPIFDSWGQGTLVTVSS VL: QTVVTQEPSFSVSPGGTVTLTCGLKSGSVTSDNFPTWYQQTPGQAPRLLIYNTNTRHSGVPDRFSGSILGNKAALTITGAQADDEAEYFCALFISNPSVEFGGGTQLTVLG",
    "Measured result": "1.6 fold relative to 27B3"
  },
  {
    "Binder": "40F1 mAb (human IgG1, HEK293) (antibody, V domains shown) VH: EVQLVESGGGLVQPGGSLRLSCAASGFTFSVYYMNWVRQAPGKGLEWVSDINNEGGATYYADSVKGRFTISRDNSKNSLYLQMNSLRAEDTAVYYCARDAGYSNHVPIFDSWGQGTQVTVSS VL: QAVVTQEPSFSVSPGGTVTLTCGLKSGSVTSDNFPTWYQQTPGQAPRLLIYNTNTRHSGVPDRFSGSILGNKAALTITGAQADDEAEYFCALFISNPSVEFGGGTQLTVLG",
    "Measured result": "1.8 fold relative to 27B3"
  },
  {
    "Binder": "41D12 mAb (human IgG1, HEK293) (antibody, V domains shown) VH: EVQLVESGGGLVQPGGSLRLSCAASGFTFSVYYMNWVRQAPGKGLEWVSDINNEGGTTYYADSVKGRFTISRDNSKNSLYLQMNSLRAEDTAVYYCARDAGYSNHVPIFDSWGQGTLVTVSS VL: QAVVTQEPSLTVSPGGTVTLTCGLKSGSVTSDNFPTWYQQTPGQAPRLLIYNTNTRHSGVPDRFSGSILGNKAALTITGAQADDEAEYFCALFISNPSVEFGGGTQLTVLG",
    "Measured result": "1.2 fold relative to 27B3"
  }
]

Values were extracted from patent US20230265201A1.
